# credit: patent US10766884B2

molecular target: CDK4 (Homo sapiens (Human)); assay: Phospho-Serine 795 Rb ELISA assay in JEKO-1 cells; conditions: overnight treatment, phospho-Rb S795, read-out: CDK4 pRB S795 ELISA JEKO-1 cells IC50
Sequence (P11802 2-303): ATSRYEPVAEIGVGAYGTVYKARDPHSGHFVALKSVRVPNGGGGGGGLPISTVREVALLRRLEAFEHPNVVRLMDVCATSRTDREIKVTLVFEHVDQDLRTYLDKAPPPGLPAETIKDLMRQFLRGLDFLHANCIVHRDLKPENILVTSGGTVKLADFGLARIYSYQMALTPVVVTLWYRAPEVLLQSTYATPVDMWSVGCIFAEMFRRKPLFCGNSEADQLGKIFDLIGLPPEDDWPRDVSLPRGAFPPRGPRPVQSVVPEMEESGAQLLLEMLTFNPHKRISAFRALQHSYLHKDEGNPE
Sequence (P24385 whole entry partner): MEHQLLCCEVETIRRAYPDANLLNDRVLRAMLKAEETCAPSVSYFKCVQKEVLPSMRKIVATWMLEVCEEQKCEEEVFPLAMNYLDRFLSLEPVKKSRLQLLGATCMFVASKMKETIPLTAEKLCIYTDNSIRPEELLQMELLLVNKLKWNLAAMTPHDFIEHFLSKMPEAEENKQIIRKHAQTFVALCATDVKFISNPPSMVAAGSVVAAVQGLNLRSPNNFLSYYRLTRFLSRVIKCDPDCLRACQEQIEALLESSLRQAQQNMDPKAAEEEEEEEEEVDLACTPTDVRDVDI
pIC50: −log10 of the molar value.
Binary call on pIC50: 1 from 7 upward, -1 beneath that.

{"compound": "CC(C)n1c([C@@H](C)O)nc2c(F)cc(-c3nc(N[C@@H]4CCN(S(C)(=O)=O)C[C@@H]4O)ncc3Cl)cc21 (single isomer, unassigned)", "group": -1}
{"compound": "COCc1nc2c(F)cc(-c3nc(N[C@@H]4CCN(S(C)(=O)=O)C[C@H]4O)ncc3Cl)cc2n1C(C)C", "group": 1}
{"compound": "CC(C)n1c(CNC2COC2)nc2c(F)cc(-c3nc(N[C@@H]4CCOC[C@H]4O)ncc3Cl)cc21", "group": -1}
{"compound": "CC(C)n1c(C(C)(O)C2CC2)nc2c(F)cc(-c3nc(N[C@@H]4CCOC[C@H]4O)ncc3Cl)cc21 (single isomer, unassigned) [Example A23]", "group": 1}
{"compound": "CC1(C)CCc2nc3c(F)cc(-c4nc(N[C@@H]5CCN(S(C)(=O)=O)C[C@H]5O)ncc4Cl)cc3n21", "group": 1}
{"compound": "CC(C)n1c([C@H](C)O)nc2cc(F)c(-c3nc(N[C@@H]4CCOC[C@H]4O)ncc3Cl)cc21", "group": 1}
{"compound": "CC(C)n1c(C(C)(C)O)nc2c(F)cc(-c3nc(N[C@@H]4CCOC[C@H]4O)ncc3Cl)cc21", "group": 1}
{"compound": "CC(C)n1c([C@@H](C)O)nc2c(F)cc(-c3nc(N[C@@H]4CCN(S(C)(=O)=O)C[C@H]4O)ncc3Cl)cc21", "group": 1}
{"compound": "Cc1nc2cc(F)c(-c3nc(N[C@@H]4CCN(S(C)(=O)=O)C[C@H]4O)ncc3F)cc2n1C(C)C", "group": -1}
{"compound": "CC(C)(C)n1cnc2c(F)cc(-c3nc(N[C@@H]4CCN(S(C)(=O)=O)C[C@H]4O)ncc3F)cc21", "group": 1}

###

target: CDK6 (Homo sapiens (Human), UniProt Q00534); assay: Phospho-Serine 795 Rb ELISA assay in MV4-11 cells; details: overnight treatment, phospho-Rb S795, read-out: CDK6 pRB S795 ELISA MV4-11 cells IC50
Sequence (Q00534 whole entry): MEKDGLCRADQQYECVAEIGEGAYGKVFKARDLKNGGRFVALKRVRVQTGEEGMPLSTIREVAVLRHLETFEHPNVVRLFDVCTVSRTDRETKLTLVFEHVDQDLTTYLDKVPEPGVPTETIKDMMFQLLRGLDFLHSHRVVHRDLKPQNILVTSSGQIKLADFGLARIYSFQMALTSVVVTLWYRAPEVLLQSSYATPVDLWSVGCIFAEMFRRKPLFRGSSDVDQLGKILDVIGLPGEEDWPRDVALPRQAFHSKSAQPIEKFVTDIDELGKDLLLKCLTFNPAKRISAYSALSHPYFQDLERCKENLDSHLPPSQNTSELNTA
Sequence (P30281 whole entry partner): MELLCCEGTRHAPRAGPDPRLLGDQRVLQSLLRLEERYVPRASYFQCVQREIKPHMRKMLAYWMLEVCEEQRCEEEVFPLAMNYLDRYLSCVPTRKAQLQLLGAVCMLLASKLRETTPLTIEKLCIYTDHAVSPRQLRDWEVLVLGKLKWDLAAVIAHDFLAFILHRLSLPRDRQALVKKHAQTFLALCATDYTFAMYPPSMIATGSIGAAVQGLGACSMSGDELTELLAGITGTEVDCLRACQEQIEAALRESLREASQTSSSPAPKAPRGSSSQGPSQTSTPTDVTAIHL
pIC50: −log10 of the molar value.

{"structureAsSmiles": "CC(C)n1c(CNC2CC2)nc2c(F)cc(-c3nc(N[C@@H]4CCOC[C@H]4O)ncc3Cl)cc21", "testedOn": "CDK6 (Homo sapiens (Human), UniProt Q00534)", "pIC50": 6.53}
{"structureAsSmiles": "Cc1nc2c(F)cc(-c3nc(N[C@@H]4CCN(C(=O)CO)C[C@H]4O)ncc3F)cc2n1C(C)C", "testedOn": "CDK6 (Homo sapiens (Human), UniProt Q00534)", "pIC50": 6.90}
{"structureAsSmiles": "CC(C)(C)n1cnc2ccc(-c3cc(N[C@@H]4CCN(C(=O)CO)C[C@H]4O)ncc3Cl)nc21", "testedOn": "CDK6 (Homo sapiens (Human), UniProt Q00534)", "pIC50": 6.77}
{"structureAsSmiles": "CNC(=O)CN1CC[C@@H](Nc2cc(-c3ccc4ncn(C(C)(C)C)c4n3)c(Cl)cn2)[C@H](O)C1", "testedOn": "CDK6 (Homo sapiens (Human), UniProt Q00534)", "pIC50": 6.95}
{"structureAsSmiles": "CC(C)(C)n1cnc2ccc(-c3nc(N[C@@H]4CCN(S(C)(=O)=O)C[C@H]4O)ncc3F)cc21", "testedOn": "CDK6 (Homo sapiens (Human), UniProt Q00534)", "pIC50": 6.90}
{"structureAsSmiles": "Cc1nc2c(F)cc(-c3nc(N[C@@H]4CCN(S(C)(=O)=O)C[C@H]4O)ncc3Cl)cc2n1[C@H](C)CN", "testedOn": "CDK6 (Homo sapiens (Human), UniProt Q00534)", "pIC50": 6.22}
{"structureAsSmiles": "C[C@H]1COCc2nc3c(F)cc(-c4nc(N[C@@H]5CCN(S(C)(=O)=O)C[C@H]5O)ncc4Cl)cc3n21", "testedOn": "CDK6 (Homo sapiens (Human), UniProt Q00534)", "pIC50": 6.71}

###

molecular target: CDK4/Cyclin D1 (Homo sapiens (Human), UniProt P11802); assay: CDK4/Cyclin D1 mobility shift assay; assay type: biochemical; settings: activated CDK4/Cyclin D1, 3.5 mM ATP, Morrison fit; read-out: CDK4D1 Ki
Sequence (P11802 whole entry): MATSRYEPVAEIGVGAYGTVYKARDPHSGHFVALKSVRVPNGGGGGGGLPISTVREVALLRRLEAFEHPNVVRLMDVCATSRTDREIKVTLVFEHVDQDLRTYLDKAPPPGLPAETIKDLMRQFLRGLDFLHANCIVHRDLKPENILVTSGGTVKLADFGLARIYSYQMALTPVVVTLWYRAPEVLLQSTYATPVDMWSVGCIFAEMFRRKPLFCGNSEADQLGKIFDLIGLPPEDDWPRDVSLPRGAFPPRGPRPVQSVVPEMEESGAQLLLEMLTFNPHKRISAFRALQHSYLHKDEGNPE
Sequence (P24385 whole entry partner): as the sequence (P24385 whole entry partner) above
pKi: −log10 of the molar value.
# key: entry, value: pKi

{"compound": "CS(=O)(=O)N1CC[C@@H](Nc2ncc(Cl)c(-c3cc(F)c4nc(CO)n(C5CCC5)c4c3)n2)[C@H](O)C1", "pKi": 9.22}
{"compound": "CC(=O)N1CC[C@@H](Nc2ncc(F)c(-c3cc(F)c4nc(C)n(C(C)C)c4c3)n2)[C@H](O)C1", "pKi": 8.85}
{"compound": "CC(C)(C)n1cnc2ccc(-c3cc(N[C@@H]4CCN(C(=O)CO)C[C@H]4O)ncc3Cl)nc21", "pKi": 9.30}
{"compound": "COCC(C)n1c(C)nc2c(F)cc(-c3nc(N[C@@H]4CCN(S(C)(=O)=O)C[C@H]4O)ncc3Cl)cc21 (single isomer, unassigned) [Example A73]", "pKi": 9.05}
{"compound": "CNCC(=O)N1CC[C@@H](Nc2ncc(Cl)c(-c3cc(F)c4ncn(C(C)C)c4c3)n2)[C@H](O)C1", "pKi": 8.68}
{"compound": "CC(C)n1c(C2COC2)nc2c(F)cc(-c3nc(N[C@@H]4CCN(S(C)(=O)=O)C[C@H]4O)ncc3Cl)cc21", "pKi": 9.70}
{"compound": "CC1(C)CNCc2nc3c(F)cc(-c4nc(N[C@@H]5CCOC[C@H]5O)ncc4Cl)cc3n21", "pKi": 8.64}

###

biological target: CDK6 (Homo sapiens (Human)); experiment: Phospho-Serine 795 Rb ELISA assay in MV4-11 cells; settings: overnight treatment, phospho-Rb S795, read-out: CDK6 pRB S795 ELISA MV4-11 cells IC50
Structures can show the parent of a compound that is named as a salt.
Exam item: assign Satisfied to entries whose IC50 is below 100 nM and Not satisfied to entries at or above 100 nM. Note that a value of exactly 100 nM receives Not satisfied.

{"compound": "CC(C)n1cnc2c(Cl)cc(-c3nc(N[C@@H]4CCN(C(=O)[C@@H](C)O)C[C@H]4O)ncc3Cl)cc21", "group": "Not satisfied"}
{"compound": "CC(O)c1nc2c(F)cc(-c3nc(N[C@@H]4CCOC[C@H]4O)ncc3Cl)cc2n1C(C)C(F)F (single isomer, unassigned)", "group": "Satisfied"}
{"compound": "Cn1nc2ccc(-c3nc(N[C@@H]4CCN(S(C)(=O)=O)C[C@H]4O)ncc3Cl)cc2c1C(C)(C)O", "group": "Satisfied"}
{"compound": "CC(C)n1c(C2CCO2)nc2c(F)cc(-c3nc(N[C@@H]4CCN(S(C)(=O)=O)C[C@H]4O)ncc3Cl)cc21 (single isomer, unassigned)", "group": "Satisfied"}
{"compound": "C[C@H](O)C(=O)N1CC[C@@H](Nc2ncc(Cl)c(-c3cc(F)c4ncn(C(C)(C)C)c4c3)n2)[C@H](O)C1", "group": "Not satisfied"}
{"compound": "CC(C)(C)n1cnc2c(F)cc(-c3nc(N[C@@H]4CCN(CCO)C[C@H]4O)ncc3Cl)cc21 [Example F05, formic acid salt]", "group": "Not satisfied"}
